Record form. Attribute: furin cleavage Z-score. Fill in for each entry.
biological target: furin, P09958; assay: furin cleavage Z-score vs untreated control; higher = more cleavage, active = 3.5 or more, inactive = 1 or less, 8 variable residues between constant flanks; conditions: 7.5 min;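 also: purified furin at 1:10 enzyme:substrate in 50 mM HEPES pH 7.5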
Sequence (P09958 whole entry): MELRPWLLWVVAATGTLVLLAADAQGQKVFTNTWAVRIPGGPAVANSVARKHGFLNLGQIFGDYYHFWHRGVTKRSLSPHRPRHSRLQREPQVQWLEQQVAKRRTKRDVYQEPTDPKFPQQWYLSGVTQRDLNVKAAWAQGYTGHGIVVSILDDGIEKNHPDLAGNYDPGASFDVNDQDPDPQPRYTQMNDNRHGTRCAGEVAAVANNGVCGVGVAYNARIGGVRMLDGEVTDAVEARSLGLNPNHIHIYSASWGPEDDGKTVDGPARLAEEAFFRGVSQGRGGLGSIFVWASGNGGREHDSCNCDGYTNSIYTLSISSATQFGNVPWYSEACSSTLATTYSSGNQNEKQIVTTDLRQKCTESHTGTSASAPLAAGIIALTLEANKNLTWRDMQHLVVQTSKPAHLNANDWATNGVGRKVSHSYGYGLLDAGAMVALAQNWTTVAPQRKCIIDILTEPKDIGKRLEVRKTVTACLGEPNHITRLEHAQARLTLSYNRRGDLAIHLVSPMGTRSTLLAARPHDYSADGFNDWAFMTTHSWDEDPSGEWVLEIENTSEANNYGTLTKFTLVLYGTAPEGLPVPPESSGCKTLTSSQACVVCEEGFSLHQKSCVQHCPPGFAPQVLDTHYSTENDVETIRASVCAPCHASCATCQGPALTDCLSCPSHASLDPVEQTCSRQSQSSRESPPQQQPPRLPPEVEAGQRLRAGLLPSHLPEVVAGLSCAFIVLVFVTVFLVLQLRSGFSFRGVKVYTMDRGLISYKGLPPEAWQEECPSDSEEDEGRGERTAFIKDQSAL
Some of the results follow. No count for the full screen is at hand.
Numbers only.

Hi there! I need furin cleavage Z-score for each item below, if you can.
1. CAIPLVGAPLAGNASASA [HC229]
2. CARPRRSLALAGNASASA [FS-2504]
3. CASKSLSKRSAGNASASA [FS-721]
4. CARRARAVHDAGNASASA [FS-2769]
5. CATIKRSVISAGNASASA [FS-2853]
6. CAAVARLKRSAGNASASA [FS-218]

A.
1: -1.25; 2: 7.93; 3: 8.05; 4: 0.991; 5: 0.545; 6: 12.9

Hi there! I need furin cleavage Z-score for each item below, if you can.
1. CAHHSPLKRSAGNASASA [FS-30]
2. CARPRRELSLAGNASASA [FS-2501]
3. CARPWKSVALAGNASASA [FS-1765]
4. CARRARSSVCAGNASASA [FS-2771]
5. CARRARSPHDAGNASASA [FS-1834]
6. CANCSREARGAGNASASA [FS-832]
7. CAIDTLTCGFAGNASASA [HC222]

A.
1. -0.21
2. 9.83
3. 1.43
4. -0.135
5. 8.36
6. -1.13
7. 0.261

Hi there! I need furin cleavage Z-score for each item below, if you can.
1. CAVVNRKARFAGNASASA [FS-208]
2. CAEMTTPCSGAGNASASA [HC1966]

A.
[6.98, -0.105]
